Where do these numbers come from? They come from paper PMC11747885.

# systemName: Rlig1-AMP (Homo sapiens)
# Construct: made in house; host or cells: E. coli BL21 (DE3), pET15b-Rlig1
# Sequence (Q8N999 whole entry): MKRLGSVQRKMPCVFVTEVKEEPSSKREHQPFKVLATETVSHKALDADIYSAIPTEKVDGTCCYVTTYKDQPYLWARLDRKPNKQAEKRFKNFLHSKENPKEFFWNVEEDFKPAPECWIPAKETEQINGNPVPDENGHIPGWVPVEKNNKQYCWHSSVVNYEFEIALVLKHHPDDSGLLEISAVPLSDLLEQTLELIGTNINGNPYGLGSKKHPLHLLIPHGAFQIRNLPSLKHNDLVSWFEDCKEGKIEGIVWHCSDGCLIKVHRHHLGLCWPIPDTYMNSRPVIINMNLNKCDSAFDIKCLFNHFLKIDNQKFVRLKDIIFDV
# assayComment: FRET-based high-throughput screening of inhibitors for Rlig1-AMP
# Type: biochemical
# experimentalConditions: sheet HTS hits; without enzyme
Here the recorded Raw data [w/o Enzym] is given for each entry.
Form rule: numeric answer, no unit written next to it.

Example results:
C#CCOCCOCCOCCOCC#C [Bis-propargyl-PEG3] ... 10775
CCOc1ccccc1OCCN[C@H](C)Cc1ccc(OC)c(S(N)(=O)=O)c1 [Tamsulosin] ... 10771
COc1cc(S(=O)(=O)[O-])ccc1O.[K+] [Sulfogaiacol] ... 10335

Entry CC(=O)O[C@H]1C[C@@]2(C)[C@@H](C[C@@H](O)[C@H]3[C@@]4(C)CC[C@@H](O)[C@@H](C)[C@@H]4CC[C@@]32C)/C1=C(\CCC=C(C)C)C(=O)[O-].[Na+] [Fusidic acid (sodium salt)] : reported Raw data [w/o Enzym] = ?
10935

Report Raw data [w/o Enzym] for Cc1nc2cc(C(=O)N(C)C)cc(O[C@H]3CCOc4cc(F)cc(F)c43)c2[nH]1 [Tegoprazan] please.
10835

Request the reported Raw data [w/o Enzym] associated with COc1cccc2c1C(=O)c1c(O)c3c(c(O)c1C2=O)C[C@@](O)(C(C)=O)C[C@@H]3O[C@H]1C[C@H](N)[C@H](O)[C@H](C)O1.Cl [Daunorubicin (hydrochloride)]
2189

Name the reported Raw data [w/o Enzym] value associated with the compound CC1=NN(c2ccc(C)c(C)c2)C(=O)/C1=N\Nc1cccc(-c2cccc(C(=O)O)c2)c1O [Eltrombopag]
5130
